- System: M14 melanoma
- MEASUREMENT NOTES: NCI tumour cell line growth inhibition, 48 h

COMPOUND: CCCN1CCN(c2ccc3nc(-c4ccc5nc(-c6cc(OC)ccc6OC)[nH]c5c4)[nH]c3c2)CC1
GI50: 1780 nM

COMPOUND: COc1ccc(-c2ccc(/C=N/n3c(COc4ccc(Cl)cc4Cl)nn(CN4CCN(C)CC4)c3=S)o2)c([N+](=O)[O-])c1
GI50: 19800 nM

COMPOUND: O=C(Nc1ccc(F)cc1F)c1cc(Br)ccc1O
GI50: 1910 nM

COMPOUND: O=c1[nH]ccc2nc(N3CCC(O)CC3)nc(Nc3cccc(C(F)(F)F)c3)c12
GI50: 1550 nM

COMPOUND: COc1ccc2c(c1)OC1=C(C(=O)OC1)C2c1cc(OC)c(OC)c(OC)c1 (stereo not drawn)
GI50: 471 nM

COMPOUND: NC(=N\N=C/c1cccc([N+](=O)[O-])c1)/C(N)=N\N=C/c1cccc([N+](=O)[O-])c1
GI50: > 100000 nM

COMPOUND: O=C([O][Hg][CH2]C1COCC([CH2][Hg][O]C(=O)c2ccccc2)O1)c1ccccc1 (stereo not drawn)
GI50: 6010 nM

COMPOUND: CCN=c1cc2sc3cc(NCC)c(C)cc3nc-2cc1C
GI50: 636 nM
